# System: P388 leukemia ip, CD2F1 mice, survival T/C
# protocol: NCI In Vivo Anticancer Drug Screen. Data for tumor model P388 Leukemia (intraperitoneal) in CD2F1 (CDF1) mice
# assay conditions: endpoint: median survival time; dose: 50.0 mg/kg/injection; schedule: Q01DX005 (ip); vehicle: saline with Tween-80; higher = longer survival
Toxic doses and inconclusive results are not listed. Peptide text beside a SMILES is read from it. * marks the point of attachment. Cbz = O=C(OCc1ccccc1)*
endpoint: T/C

compound | target | endpoint | reading
COc1ccc(N(C)C(=O)c2ccccc2S(=O)(=O)c2ccccc2C(=O)N(C)c2ccc(OC)cc2)cc1 | P388 leukemia ip, CD2F1 mice, survival T/C | T/C | 104 % of control
Nc1nc(N)c2c(n1)NCN(O)C2 | P388 leukemia ip, CD2F1 mice, survival T/C | T/C | 97 % of control
Cc1nn(C)c(Cl)c1C(=O)Nc1ccccc1 | P388 leukemia ip, CD2F1 mice, survival T/C | T/C | 96 % of control
NCCNc1ncnc2ccc(Cl)cc12 | P388 leukemia ip, CD2F1 mice, survival T/C | T/C | 97 % of control
C/C=C1\C[C@H]2C(=O)Nc3cc(O)c(OC)cc3C(=O)N2C1 | P388 leukemia ip, CD2F1 mice, survival T/C | T/C | 105 % of control
CC(=O)OCC1OC(n2c(Br)nc3c(N)ncnc32)C(OC(C)=O)C1OC(C)=O (centres undefined) | P388 leukemia ip, CD2F1 mice, survival T/C | T/C | 103 % of control
C/C([O-])=c1\c(C)nn2ccc[n+]12 | P388 leukemia ip, CD2F1 mice, survival T/C | T/C | 108 % of control
NC(=O)C1CCCN1C(=O)C(Cc1ccc(O)cc1)NC(=O)OCc1ccccc1 (stereo not drawn) (Cbz-Tyr-Pro-NH2; configuration not given here) | P388 leukemia ip, CD2F1 mice, survival T/C | T/C | 104 % of control
CC1(c2ccccc2)CCOCO1 (centres undefined) | P388 leukemia ip, CD2F1 mice, survival T/C | T/C | 106 % of control
CSc1nc(SC)c2cnn(COCCO)c2n1 | P388 leukemia ip, CD2F1 mice, survival T/C | T/C | 92 % of control
C=CCOc1cc2c(cc1C(C)c1ccc(F)cc1)OCO2 (centres undefined) | P388 leukemia ip, CD2F1 mice, survival T/C | T/C | 100 % of control
Cc1cc(=O)c2ccc(Br)cc2[nH]1 | P388 leukemia ip, CD2F1 mice, survival T/C | T/C | 100 % of control
O=C1CC(=O)N(C2CCCCC2)C(=O)N1c1ccccc1S(=O)(=O)Oc1ccccc1 | P388 leukemia ip, CD2F1 mice, survival T/C | T/C | 103 % of control
C/C(=C1/N=C(c2ccccc2)OC1=O)c1ccccc1 | P388 leukemia ip, CD2F1 mice, survival T/C | T/C | 98 % of control
OC(CCl)Cn1nnc2ccccc21 (centres undefined) | P388 leukemia ip, CD2F1 mice, survival T/C | T/C | 103 % of control
CNC(=O)SCCC(=O)OC | P388 leukemia ip, CD2F1 mice, survival T/C | T/C | 98 % of control
CCN(CC)CCNc1cccc2oc3ccc(OS(=O)(=O)c4ccc(C)cc4)cc3c(=O)c12 | P388 leukemia ip, CD2F1 mice, survival T/C | T/C | 97 % of control
CCOc1c(C)cc(Cc2ccc3c(c2)OCO3)cc1C | P388 leukemia ip, CD2F1 mice, survival T/C | T/C | 108 % of control
C=CC(=O)C1OC2OC(C)(C)OC2C2OC(C)(C)OC12 (centres undefined) | P388 leukemia ip, CD2F1 mice, survival T/C | T/C | 93 % of control
O=C1C2C3C=CC(C3)C2C(=O)N1O (centres undefined) | P388 leukemia ip, CD2F1 mice, survival T/C | T/C | 101 % of control
CCCCN(CCCC)CC(O)c1ccc(Br)c2ccccc12 (centres undefined) | P388 leukemia ip, CD2F1 mice, survival T/C | T/C | 105 % of control
CC(NC(=O)OC(C)(C)C)C(=O)NC(C)C(=O)OCc1ccccc1 (centres undefined) | P388 leukemia ip, CD2F1 mice, survival T/C | T/C | 99 % of control
Nc1nnc2nc(C(C(=O)c3ccc(F)cc3)c3nc4nnc(N)n4[nH]c3=O)c(=O)[nH]n12 | P388 leukemia ip, CD2F1 mice, survival T/C | T/C | 98 % of control
Cc1cc(Cl)nc2nc(Cl)ccc12 | P388 leukemia ip, CD2F1 mice, survival T/C | T/C | 101 % of control
